# Tested on: U2OS
# assay.info: Incucyte cell viability with U2OS; further: unitless GR value; below 1 slowed growth and below 0 cell loss
# Type: toxicity, cell-based
# condition.notes: human, 18 h, 10 µM, compound concentration 10 uM, replicate number 2

{"compound": "CCC(F)(F)c1cc(N2CCC(S(C)(=O)=O)CC2)nc2sc(C(N)=O)c(N)c12 [BI-605906]", "Growth Rate": 0.92}
{"compound": "COC(=O)C1=C(C)NC(C)=C(C(=O)OC(C)C)C1c1cccc2nonc12 (stereo not given) [ISRADIPINE]", "Growth Rate": 0.89}
{"compound": "Cc1cc(-c2nc(-c3ccc(OC(F)(F)F)cc3)no2)nn1Cc1ccnc(N2CCN(C3CC3)CC2)c1", "Growth Rate": 0.61}
{"compound": "O=C(CCCN1CCC(O)(c2ccc(Cl)cc2)CC1)c1ccc(F)cc1 [HALOPERIDOL]", "Growth Rate": 1}
{"compound": "COc1cc(F)ccc1-c1cc(Nc2cc(CS(C)(=N)=O)ccn2)ncc1F (stereo not given) [ENITOCICLIB]", "Growth Rate": 0.3}
{"compound": "CNC(=O)c1c(F)cccc1Nc1nc(Nc2cc3c(cc2OC)CCN3C(=O)CN(C)C)nc2[nH]ccc12", "Growth Rate": -0.11}
{"compound": "CC(=O)Nc1cccc(-n2c(=O)n(C3CC3)c(=O)c3c(Nc4ccc(I)cc4F)n(C)c(=O)c(C)c32)c1 [TRAMETINIB]", "Growth Rate": 0.85}
{"compound": "C[C@H]1CN(C2COC2)CCN1c1ccc(Nc2cc(-c3ccnc(N4CCn5c(cc6c5CC(C)(C)C6)C4=O)c3CO)cn(C)c2=O)nc1 [FENEBRUTINIB]", "Growth Rate": 0.98}
{"compound": "Cl.Cl.N#Cc1ccc(O[C@@H]2c3ccccc3C[C@H]2N2CCC[C@@H](N)C2)c(Cl)c1", "Growth Rate": 0.86}
{"compound": "CCc1ncnc(N2CCN(C(C)=O)CC2)c1C#Cc1ccc(N)nc1.Cl.Cl", "Growth Rate": 0.8}
{"compound": "O=C(O)[C@]1(Cc2cccc(Nc3nccs3)n2)CC[C@@H](Oc2cccc(Cl)c2F)CC1 [MK-5108]", "Growth Rate": 0.25}
{"compound": "O=C1NCCc2c(OCCCCN3CCCCC3)cccc21", "Growth Rate": 0.88}
{"compound": "COc1cc(-c2cn[nH]c2)ccc1C(=O)Nc1ccc2c(c1)CCNCC2.Cl", "Growth Rate": 0.59}
{"compound": "CC(C)(c1ccc(OCc2cccc(COc3ccc(C(=N)N)cc3)c2)cc1)c1ccc(O[C@@H]2O[C@H](C(=O)O)[C@@H](O)[C@H](O)[C@H]2O)cc1.O=C(O)C(F)(F)F", "Growth Rate": 0.89}
{"compound": "Nc1c(CC(=O)O)cccc1C(=O)c1ccc(Br)cc1 [BROMFENAC]", "Growth Rate": 0.92}
{"compound": "CCOc1ccccc1C(=O)NCC1(N2CCN(CC)CC2)CCCCC1", "Growth Rate": 0.86}
{"compound": "C=C[C@@]12CCc3cc(O)ccc3[C@H]1CC[C@@]1(C)[C@H]2CC[C@@H]1O", "Growth Rate": 0.93}
{"compound": "CN1CCN(C(=O)Cc2ccc(N/C(=C3\\C(=O)Nc4cc(Cl)ccc43)c3ccccc3)cc2)CC1", "Growth Rate": 0.7}
{"compound": "O=C1Nc2ccc(C(=O)c3ccco3)cc2C1=Cc1cc(Cl)c(O)c(Cl)c1 [GW406108X]", "Growth Rate": 0.33}
{"compound": "CCC(C(=O)Nc1ccc(-c2cc3ccccc3s2)c(C(N)=O)c1)c1nccs1 (stereo not given)", "Growth Rate": 0.8}
{"compound": "CN(C1CCc2c(c3ccccc3n2CC(=O)O)C1)S(=O)(=O)c1ccc(F)cc1 (stereo not given)", "Growth Rate": 0.93}
{"compound": "CC(=O)Oc1ccc2c(c1)[C@@]1(C)CCC[C@](C)(C(=O)OC(=O)[C@@]3(C)CCC[C@]4(C)c5cc(OC(C)=O)ccc5CC[C@@H]34)[C@@H]1CC2 [ACETYL PODOCARPIC ACID ANHYDRIDE]", "Growth Rate": 0.96}
{"compound": "CC(=O)NCC(=O)N1[C@@H]2CC[C@H]1c1ccc(Nc3ncc(C(F)(F)F)c(NC4CCC4)n3)cc12 [PF-03814735]", "Growth Rate": -0.08}
{"compound": "O=C(O)c1ccc(S(=O)(=O)N(Cc2ccc(OC(F)(F)F)cc2)c2ncc(C(F)(F)F)cc2Cl)cc1", "Growth Rate": 0.93}
{"compound": "O=C(Nc1cccc(Nc2nccc(Nc3cccc(C(F)(F)F)c3)n2)c1)C1CC1 [ANILINOPYRIMIDINE1]", "Growth Rate": -0.3}

* * *

# Tested on: U2OS
# assay.info: Incucyte cell viability with U2OS; further: unitless GR value; below 1 slowed growth and below 0 cell loss
# Format: toxicity, cell-based
# condition.notes: human, 12 h, 10 µM, compound concentration 10 uM, replicate number 1

{"molecule": "COC(=O)c1ccc2c(c1)NC(=O)/C2=C(\\Nc1ccc(-c2nccn2C)cc1)c1ccccc1", "Growth Rate": 0.53}
{"molecule": "CN1CC(=O)N(C)c2cnc(Nc3ccc(NC(=O)Nc4cccc(C(=O)O)c4)cc3)nc21", "Growth Rate": 0.91}
{"molecule": "O=C(CCCCCCc1ccccc1)c1ncc(-c2ccccn2)o1", "Growth Rate": 0.58}
{"molecule": "CCCCCCC(Sc1nc(Cl)cc(NCc2ccc(-c3ccccc3)cc2)n1)C(=O)O (stereo not drawn)", "Growth Rate": 0.89}
{"molecule": "O=C(O)CCCCN(CCc1ccccc1OCc1ccc(CCc2ccccc2)cc1)Cc1ccc(C(=O)O)cc1", "Growth Rate": 0.91}
{"molecule": "COc1cc(CN(CCN)C(=O)N[C@@H](C)c2ccccc2)ccc1OCc1ccccc1.Cl", "Growth Rate": 0.69}
{"molecule": "O=S(=O)(Nc1nnc2cc(OCC34CC5CC(CC(C5)C3)C4)c(C3CC3)cn12)C1CC1", "Growth Rate": 0.94}
{"molecule": "CC[C@@H](Nc1c(C#N)c(-c2ccc(-c3cccc(C)c3F)cc2)nc2cnccc12)C(=O)O [BAY-091]", "Growth Rate": 0.7}
{"molecule": "Cc1onc(-c2ccc(F)cc2)c1COc1ccc(C(=O)N2CCS(=O)(=O)CC2)cn1 [BASMISANIL]", "Growth Rate": 0.73}
{"molecule": "Cc1noc(C)c1-c1cnc2c(-c3ccc(C(=O)O)cc3)cn([C@@H](C)c3ccccn3)c2c1 [PLX-51107]", "Growth Rate": 0.94}
{"molecule": "O=C1CCCc2[nH]c(-c3ccnc(NCC4CC4)c3)c(Nc3ccccc3)c21", "Growth Rate": 0.68}
{"molecule": "CN(C)C(=O)Cn1cc(-c2ccc(-c3nnc4ccccn34)cc2)cn1", "Growth Rate": 0.76}
{"molecule": "Cc1cc2nc(N3CCC(C(=O)NC4CCCC4)CC3)n(C(C)C)c2cc1C", "Growth Rate": 0.79}

* * *

# Tested on: U2OS
# assay.info: Incucyte cell viability with U2OS; further: unitless GR value; below 1 slowed growth and below 0 cell loss
# Type: toxicity, cell-based
# condition.notes: human, 12 h, 10 µM, compound concentration 10 uM, replicate number 2
The following compounds are listed with their measured Growth Rate values.
readout.name: Growth Rate

{"cpd.smiles": "CCCCNc1ncc2c(-c3ccc(CN4CCN(C)CC4)cc3)cn([C@H]3CC[C@H](O)CC3)c2n1", "target.or.test.system": "U2OS", "readout.name": "Growth Rate", "measured.value": 0.4}
{"cpd.smiles": "C=C[C@H]1C[N@@]2CC[C@H]1C[C@@H]2[C@@H](O)c1ccnc2ccc(OC)cc12", "target.or.test.system": "U2OS", "readout.name": "Growth Rate", "measured.value": 0.65}
{"cpd.smiles": "CC(=O)Nc1nc2c(Oc3cc(-c4ccc(C(F)(F)F)cc4)ncn3)cccc2s1", "target.or.test.system": "U2OS", "readout.name": "Growth Rate", "measured.value": 0.88}

* * *

# System: HEK-293T
# assay.info: Incucyte cell viability with HEK293T; further: unitless GR value; below 1 slowed growth and below 0 cell loss
# Type: toxicity, cell-based
# condition.notes: human, 0 h, 10 µM, compound concentration 10 uM, replicate number 1
readout.name: Growth Rate

{"compound": "CC(C)c1ccc(/C=N/NC(=O)c2ccc(O)cc2)cc1", "readout.name": "Growth Rate", "measured.value": 0.78}
{"compound": "COc1ccc2c(O[C@@H]3C[C@H]4C(=O)N[C@]5(C(=O)NS(=O)(=O)C6(C)CC6)CC5/C=C\\CCCCC[C@H](NC(=O)c5ccn(C)n5)C(=O)N4C3)cc(OC(C)C)nc2c1C (some centres undefined)", "readout.name": "Growth Rate", "measured.value": 1}
{"compound": "CCN1CCN(Cc2ccc(Nc3ncc(F)c(-c4cc(F)c5nc(C)n(C(C)C)c5c4)n3)nc2)CC1.CS(=O)(=O)O", "readout.name": "Growth Rate", "measured.value": -0.17}
{"compound": "CCCCOc1c(C(=O)c2c(F)cc(C)cc2F)c[nH]c2nncc1-2", "readout.name": "Growth Rate", "measured.value": -1}
{"compound": "C=CC(=O)Nc1ccc(C(=O)Nc2n[nH]c3c2CN(C(=O)N[C@H](CN(C)C)c2ccccc2)C3(C)C)cc1", "readout.name": "Growth Rate", "measured.value": -0.5}
{"compound": "Nc1ncc2c(n1)-c1c([nH]c3ccc(C4=CCOCC4)cc13)CCC2", "readout.name": "Growth Rate", "measured.value": 0.56}
{"compound": "COc1cc(N2CCN(C)CC2)ccc1Nc1nccc(-c2cn(C)c3cnccc23)n1", "readout.name": "Growth Rate", "measured.value": -0.65}
{"compound": "OCC1OC(n2cnc3cc(Cl)c(Cl)cc32)C(O)C1O (centres undefined)", "readout.name": "Growth Rate", "measured.value": 0.64}
{"compound": "Cc1nc2cccnc2n2c(-c3cc(C(C)(C)O)ncc3Cl)nnc12", "readout.name": "Growth Rate", "measured.value": 0.72}
{"compound": "CC(C=CC1=C(C)CCCC1(C)C)=CC=CC(C)=CC(=O)O", "readout.name": "Growth Rate", "measured.value": 0.11}
{"compound": "CCCn1cc(-c2cc(C3C(=O)N(CC)c4ccc(C(F)(F)F)cc4N(c4ccccc4)C3=O)cc(OC)c2O)cn1 (centres undefined)", "readout.name": "Growth Rate", "measured.value": 0.67}
{"compound": "Cn1nccc1Nc1nccc(-c2cc3c(s2)C(C)(C)N(CCN2CCOCC2)C3=O)n1 [TEMUTERKIB]", "readout.name": "Growth Rate", "measured.value": 0.39}
{"compound": "C/C(=C\\C(=O)Nc1ccccc1C(=O)[O-])c1ccc2ccccc2c1.[Na+]", "readout.name": "Growth Rate", "measured.value": 0.79}
{"compound": "NCCCNCCCCNCCC(=O)NCCCCCNC(=O)[C@H](CC(N)=O)NC(=O)Cc1ccc(O)cc1O [JORO SPIDER TOXIN 3]", "readout.name": "Growth Rate", "measured.value": -0.96}

Data origin: ChEMBL document CHEMBL5303304
